testedSystem: sGC α1/β1 heterodimer stably expressed in CHO-K1 cells (CHO-K1/sGC) (Homo sapiens, UniProt Q02108+Q02153)
Sequence (Q02108 whole entry): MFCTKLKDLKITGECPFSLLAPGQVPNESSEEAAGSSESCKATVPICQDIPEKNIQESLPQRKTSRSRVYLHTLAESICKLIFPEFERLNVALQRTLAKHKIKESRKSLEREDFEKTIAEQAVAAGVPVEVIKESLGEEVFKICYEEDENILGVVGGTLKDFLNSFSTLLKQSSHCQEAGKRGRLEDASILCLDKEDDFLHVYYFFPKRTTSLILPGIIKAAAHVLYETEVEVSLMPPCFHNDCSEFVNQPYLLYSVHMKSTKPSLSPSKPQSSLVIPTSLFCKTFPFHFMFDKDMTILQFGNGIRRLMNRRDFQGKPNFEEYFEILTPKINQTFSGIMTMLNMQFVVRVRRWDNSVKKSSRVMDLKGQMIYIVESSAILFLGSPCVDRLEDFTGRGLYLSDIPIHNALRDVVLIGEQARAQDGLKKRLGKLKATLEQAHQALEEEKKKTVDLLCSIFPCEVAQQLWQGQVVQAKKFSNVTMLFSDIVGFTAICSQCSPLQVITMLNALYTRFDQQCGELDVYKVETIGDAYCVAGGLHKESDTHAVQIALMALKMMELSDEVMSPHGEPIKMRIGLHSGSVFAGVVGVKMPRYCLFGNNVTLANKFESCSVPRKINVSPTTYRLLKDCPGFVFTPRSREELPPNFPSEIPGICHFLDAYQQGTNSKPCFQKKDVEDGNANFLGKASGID
Sequence (Q02153 whole entry): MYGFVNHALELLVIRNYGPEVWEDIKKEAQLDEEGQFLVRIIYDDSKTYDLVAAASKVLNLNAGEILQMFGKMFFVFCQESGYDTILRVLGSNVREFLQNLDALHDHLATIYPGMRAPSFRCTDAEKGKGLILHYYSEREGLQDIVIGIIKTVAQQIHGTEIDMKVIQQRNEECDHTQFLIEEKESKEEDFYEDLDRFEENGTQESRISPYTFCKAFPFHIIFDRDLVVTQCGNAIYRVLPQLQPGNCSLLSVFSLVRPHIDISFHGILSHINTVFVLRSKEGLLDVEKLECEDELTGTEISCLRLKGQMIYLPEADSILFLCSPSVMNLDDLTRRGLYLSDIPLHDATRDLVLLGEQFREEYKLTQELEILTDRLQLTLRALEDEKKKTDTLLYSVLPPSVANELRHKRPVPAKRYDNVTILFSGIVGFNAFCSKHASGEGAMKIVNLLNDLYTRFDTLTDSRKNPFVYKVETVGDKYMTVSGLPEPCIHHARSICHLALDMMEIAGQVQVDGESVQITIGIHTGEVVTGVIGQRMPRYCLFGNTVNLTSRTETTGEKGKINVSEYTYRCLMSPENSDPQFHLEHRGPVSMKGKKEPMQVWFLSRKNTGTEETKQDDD
assayName: Cell-based sGC Functional Assay (CASA Assay)
reportedConditions: inflection point of cGMP generation in CHO-K1/sGC cells, 4P fit; 1 hr at 37° C.; read-out: IP
endpointLabel: EC50 (nM)
Numbers only, in nM.

CCCCc1nc(-c2nc(N)c3c(n2)NC(=O)C3(C)c2ccc(OC)cn2)c2cnn(C)c2n1 (single isomer, unassigned) [Example 36] :: 43
CCC1(c2cn(C)nn2)C(=O)Nc2nc(-c3nc(CCC(F)(F)C(F)(F)F)nc4c3cnn4C)nc(N)c21 (single isomer, unassigned) [Example 58] :: 713
Cn1ccc2c(-c3nc(N)c4c(n3)NC(=O)C4(C)c3ccc(F)cn3)nc(CCC(F)(F)C(F)(F)F)nc21 (stereo not drawn) [Example 85] :: 112
[2H]C([2H])([2H])n1ncc2c(-c3nc(N)c4c(n3)NC(=O)C4(C)c3ccnc(C(=O)OC)c3)nc(CCC(F)(F)C(F)(F)F)nc21 (stereo not drawn) [Example 18] :: 411

Each compound below has a reported value. Please supply its EC50.
1. [2H]C([2H])([2H])n1cc(C2(C)C(=O)Nc3nc(-c4nc(CCC(F)(F)C(F)(F)F)nc5c4cnn5C([2H])([2H])[2H])nc(N)c32)nn1 (single isomer, unassigned) [Example 76]
2. CCn1ncc2c(-c3nc(N)c4c(n3)NC(=O)C4(c3nnc(C4CC4)o3)C3CC3)nc(CCC(F)(F)C(F)(F)F)nc21 (stereo not drawn) [Example 45]

1: 168; 2: 738

----------
testedSystem: sGC α1/β1 heterodimer stably expressed in CHO-K1 cells (CHO-K1/sGC) (Homo sapiens, UniProt Q02108+Q02153)
assayName: Cell-based sGC Functional Assay (CASA Assay)
reportedConditions: inflection point of cGMP generation in CHO-K1/sGC cells, 4P fit; 1 hr at 37° C.; read-out: IP
Experimental: sGC is a heme-containing enzyme that converts GTP to secondary messenger cGMP. Increases in cGMP levels affect several physiological processes including vasorelaxation through multiple downstream pathways. […] (Example 1 in WO 2010/065275, published Jun. 10, 2010). The test compounds' activity were then expressed as a percentage of Compound A, the standard in every experiment. This percent activation was calculated either in the presence or absence of DETA-NO which was then plotted. […]
endpointLabel: pEC50
Numbers only, as −log10 of the molar value.

CC(CC(F)(F)F)c1nc(-c2nc(N)c3c(n2)NC(=O)C3(C)c2ccc(F)cn2)c2cnn(C)c2n1 (stereo not shown) :: 6.22
Cc1nc(C2(C)C(=O)Nc3nc(-c4nc(CCC(F)(F)C(F)(F)F)nc5c4cnn5C)nc(N)c32)no1 (stereo not shown) :: 6.99
Cc1nnc(C2(C)C(=O)Nc3nc(-c4nc(CCC(F)(F)C(F)(F)F)nc5c4ccn5C)nc(N)c32)o1 (stereo not shown) :: 6.42

Please turn your attention to the following entry.
Given the compound CCC1(c2nnc(C3CC3)o2)C(=O)Nc2nc(-c3nc(CCC(F)(F)C(F)(F)F)nc4c3cnn4C)nc(N)c21 (stereo not shown) , what is its reported pEC50?
6.55

----------
testedSystem: sGC α1/β1 heterodimer stably expressed in CHO-K1 cells (CHO-K1/sGC) (Homo sapiens, UniProt Q02108+Q02153)
assayName: Cell-based sGC Functional Assay (CASA Assay)
reportedConditions: inflection point of cGMP generation in CHO-K1/sGC cells, 4P fit; 1 hr at 37° C.; read-out: IP
Field: EC50. Provide a value for each of the molecules that follow.
Answers are plain numbers, in nM.

CCCn1cc(C2(C)C(=O)Nc3nc(-c4nc(CCC(F)(F)C(F)(F)F)nc5c4cnn5C)nc(N)c32)nn1 (single isomer, unassigned) [Example 71] :: 217
COc1ccc(C2(C)C(=O)Nc3nc(-c4nc(CC5CC(F)(F)C5)nc5c4cnn5C)nc(N)c32)nc1 (stereo not drawn) [Example 33] :: 32

Given the molecule [2H]C([2H])([2H])n1ncc2c(-c3nc(N)c4c(n3)NC(=O)C4(C)c3ccc(C(F)(F)F)nc3)nc(CCC(F)(F)C(F)(F)F)nc21 (stereo not drawn) [Example 10] , what is its reported EC50?
665

----------
Field: Emax. Provide a value for each of the molecules that follow.
testedSystem: sGC α1/β1 heterodimer stably expressed in CHO-K1 cells (CHO-K1/sGC) (Homo sapiens, UniProt Q02108+Q02153)
Construct: expressed in transfected cells
assayName: Cell-based sGC Functional Assay (CASA Assay)
reportedConditions: CHO-K1, activation as percentage of maximum cGMP production of Compound A (set to 100%); read-out: % Act.
Answers are plain numbers, in %.

Use the examples below as a reference point.
[2H]C([2H])([2H])n1ncc2c(-c3nc(N)c4c(n3)NC(=O)C4(C)c3ccc(C(F)(F)F)nc3)nc(CCC(F)(F)C(F)(F)F)nc21 (stereo not drawn) :: 114
CC(C)n1cc(C2(C)C(=O)Nc3nc(-c4nc(CCC(F)(F)C(F)(F)F)nc5c4cnn5C)ncc32)nn1 (stereo not drawn) :: 102
CCn1cc(C2(C)C(=O)Nc3nc(-c4nc(CCC(F)(F)C(F)(F)F)nc5c4cnn5C)nc(N)c32)nn1 (single isomer, unassigned) :: 105
COc1ccc(C2(C)C(=O)Nc3nc(-c4nc(CC5CC(F)(F)C5)nc5c4cnn5C)nc(N)c32)nc1 (stereo not drawn) :: 104
Cn1ncc2c(-c3nc(N)c4c(n3)NC(=O)C4(C)c3ccc(F)cn3)nc(CCC3CC(F)(F)C3)nc21 (stereo not drawn) :: 121
[2H]C([2H])([2H])n1ncc2c(-c3nc(N)c4c(n3)NC(=O)C4(C)c3cn(CC)nn3)nc(CCC(F)(F)C(F)(F)F)nc21 (stereo not drawn) :: 120
[2H]C([2H])([2H])n1ncc2c(-c3nc(N)c4c(n3)NC(=O)C4(c3cn(C)nn3)C3CC3)nc(CCC(F)(F)C(F)(F)F)nc21 (single isomer, unassigned) :: 93
[2H]C([2H])([2H])n1ncc2c(-c3nc(N)c4c(n3)NC(=O)C4(C)c3ccc4cccnc4c3)nc(CCC(F)(F)C(F)(F)F)nc21 (stereo not drawn) :: 89

Each molecule below has a reported value. Please supply its Emax.
1. [2H]C([2H])([2H])n1ncc2c(-c3nc(N)c4c(n3)NC(=O)C4(c3nnnn3C)C3CC3)nc(CCC(F)(F)C(F)(F)F)nc21 (stereo not drawn)
2. [2H]C([2H])([2H])n1ncc2c(-c3nc(N)c4c(n3)NC(=O)C4(C)c3cn(CC4CC4)nn3)nc(CCC(F)(F)C(F)(F)F)nc21 (stereo not drawn)
3. Cc1nc(C2(C)C(=O)Nc3nc(-c4nc(CCC(F)(F)C(F)(F)F)nc5c4cnn5C)nc(N)c32)no1 (stereo not drawn)
4. CCCCc1nc(-c2nc(N)c3c(n2)NC(=O)C3(C)c2ccc(OC)cn2)c2cnn(C)c2n1 (single isomer, unassigned)
5. [2H]C([2H])([2H])n1ncc2c(-c3nc(N)c4c(n3)NC(=O)C4(c3cnn(C)c3)C3CC3)nc(CCC(F)(F)C(F)(F)F)nc21 (stereo not drawn)
6. Cn1cc(C2(C3CC3)C(=O)Nc3nc(-c4nc(CCC(F)(F)C(F)(F)F)nc5c4cnn5C)nc(N)c32)cn1 (stereo not drawn)
7. CCn1cc(C2(CC)C(=O)Nc3nc(-c4nc(CCC(F)(F)C(F)(F)F)nc5c4cnn5C)nc(N)c32)nn1 (single isomer, unassigned)

[93, 93, 132, 116, 84, 100, 108]

Each molecule below has a reported value. Please supply its Emax.
1. Cn1ncc2c(-c3nc(N)c4c(n3)NC(=O)C4(C)c3ccc(F)cn3)nc(CC3CC(F)(F)C3)nc21 (stereo not drawn)
2. [2H]C([2H])([2H])n1ncc2c(-c3nc(N)c4c(n3)NC(=O)C4(C)c3nnc(C4CC4)o3)nc(CCC(F)(F)C(F)(F)F)nc21 (stereo not drawn)
3. [2H]C([2H])([2H])n1ncc2c(-c3nc(N)c4c(n3)NC(=O)C4(c3nnc(C4CC4)o3)C3CC3)nc(CCC(F)(F)F)nc21 (stereo not drawn)
4. [2H]C([2H])([2H])n1ncc2c(-c3nc(N)c4c(n3)NC(=O)C4(C)c3nc(C4CC4)no3)nc(CCC(F)(F)C(F)(F)F)nc21 (stereo not drawn)

[117, 115, 108, 126]

Each molecule below has a reported value. Please supply its Emax.
1. [2H]C([2H])([2H])n1cc(C2(C)C(=O)Nc3nc(-c4nc(CCC(F)(F)C(F)(F)F)nc5c4cnn5C([2H])([2H])[2H])nc(N)c32)nn1 (single isomer, unassigned)
2. [2H]C([2H])([2H])n1ncc2c(-c3nc(N)c4c(n3)NC(=O)C4(C)c3ccc(F)cn3)nc(CCC(F)(F)C(F)(F)F)nc21 (stereo not drawn)
3. CCCn1cc(C2(CC)C(=O)Nc3nc(-c4nc(CCC(F)(F)C(F)(F)F)nc5c4cnn5C)nc(N)c32)nn1 (single isomer, unassigned)
4. [2H]C([2H])([2H])n1ncc2c(-c3nc(N)c4c(n3)NC(=O)C4(c3nnc(C4CC4)o3)C3CC3)nc(CCCC(F)(F)F)nc21 (stereo not drawn)
5. Cn1ncc2c(-c3nc(N)c4c(n3)NC(=O)C4(c3ncco3)C3CC3)nc(CCC(F)(F)C(F)(F)F)nc21 (stereo not drawn)

1: 148; 2: 135; 3: 121; 4: 143; 5: 126
